# TESTED_ON: human ApoC3 (human)
# Sequence (chain, as listed by the source): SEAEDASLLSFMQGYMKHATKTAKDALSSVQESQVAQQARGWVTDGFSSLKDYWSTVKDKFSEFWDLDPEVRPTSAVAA
# EXPERIMENT: SPR pH 7.4
pKd: −log10 of the molar value.
METRIC_NAME: pKd

BINDER	METRIC_NAME	VALUE_OBSERVED
mAb7 (antibody, V domains shown) VH: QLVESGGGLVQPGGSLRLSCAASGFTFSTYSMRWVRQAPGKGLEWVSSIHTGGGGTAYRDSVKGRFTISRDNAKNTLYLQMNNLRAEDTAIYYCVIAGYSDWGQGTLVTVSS VL: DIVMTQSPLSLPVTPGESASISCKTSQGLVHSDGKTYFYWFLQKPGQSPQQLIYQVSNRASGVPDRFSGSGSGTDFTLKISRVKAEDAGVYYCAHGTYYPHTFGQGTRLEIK	pKd	10.03
mAb20 (antibody, V domains shown) VH: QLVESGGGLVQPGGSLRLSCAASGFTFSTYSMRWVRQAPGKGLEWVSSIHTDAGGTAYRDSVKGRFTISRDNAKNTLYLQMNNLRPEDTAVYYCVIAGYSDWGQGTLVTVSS VL: DIVMTQSPGSLSVTPGEPASISCKTSQGLVHSGGKTYFYWFLQKPGQSPQQLIYQVSNRASGVPDRFTGSGSGTDFTLKISGVEAEDAGVYYCAHGTYYPHTFGQGTRLEIK	pKd	9.23
